Attribution: ChEMBL document CHEMBL1697781

System: Hepatotoxicity
procedure.details: FDA HLAED, gamma-glutamyl transferase (GGT) increase
run.parameters: human
value.kind: GGT Increase - Number of Reports

O=C(O)c1cn(C2CC2)c2cc(N3CCNCC3)c(F)cc2c1=O [CIPROFLOXACIN]: >= 4
COc1cc([C@@H]2c3cc4c(cc3[C@@H](O[C@@H]3O[C@@H]5CO[C@@H](c6cccs6)O[C@H]5[C@H](O)[C@H]3O)[C@H]3COC(=O)[C@H]23)OCO4)cc(OC)c1O [TENIPOSIDE]: < 4
CC(C)NCC(O)COc1cccc2[nH]ccc12 (centres undefined) [PINDOLOL]: < 4
CC(S)C(=O)NCC(=O)O (centres undefined) [TIOPRONIN]: < 4

###

For each of the compounds below, state its GGT Increase - Index Value.
Tested on: Hepatotoxicity
procedure.details: FDA HLAED, gamma-glutamyl transferase (GGT) increase
run.parameters: human
// keep it numeric: no unit symbol after the value

Notebook: pull reported GGT Increase - Index Value for Hepatotoxicity, entry CC(=O)O[C@H]1C(=O)[C@@]2(C)[C@H]([C@H](OC(=O)c3ccccc3)[C@]3(O)C[C@H](OC(=O)[C@H](O)[C@@H](NC(=O)c4ccccc4)c4ccccc4)C(C)=C1C3(C)C)[C@]1(OC(C)=O)CO[C@@H]1C[C@@H]2O
1.2

For Hepatotoxicity, provide GGT Increase - Index Value of Nc1cc(-c2ccncc2)c[nH]c1=O please.
0

Provide the documented GGT Increase - Index Value with Hepatotoxicity as the system for CCCCCCC(=O)O[C@H]1CC[C@H]2[C@@H]3CCC4=CC(=O)CC[C@]4(C)[C@H]3CC[C@]12C [TESTOSTERONE ENANTHATE]
4.8

Given the entry CCCN1CCCC[C@H]1C(=O)Nc1c(C)cccc1C , what GGT Increase - Index Value was observed with Hepatotoxicity?
0

Hepatotoxicity / GGT Increase - Index Value / C[C@@H](O)[C@H]1C(=O)N2C(C(=O)O)=C(S[C@@H]3CN[C@H](C(=O)N(C)C)C3)[C@H](C)[C@H]12 : value?
0

Value wanted: GGT Increase - Index Value (Hepatotoxicity) of entry O=C1c2c(O)ccc(O)c2C(=O)c2c(NCCNCCO)ccc(NCCNCCO)c21
0

GGT Increase - Index Value of CCN[C@H]1C[C@H](C)S(=O)(=O)c2sc(S(N)(=O)=O)cc21 [DORZOLAMIDE] on Hepatotoxicity?
0

Record COc1cc2c(cc1OC)[C@@H](Cc1cc(OC)c(OC)c(OC)c1)[N+](C)(CCCOC(=O)CC/C=C/CCC(=O)OCCC[N+]1(C)CCc3cc(OC)c(OC)cc3[C@H]1Cc1cc(OC)c(OC)c(OC)c1)CC2.[Cl-].[Cl-] (stereo not given in full) [MIVACURIUM CHLORIDE] : what is its GGT Increase - Index Value with Hepatotoxicity?
0

Quick check: GGT Increase - Index Value on Hepatotoxicity, item COc1ccc(CCN2CCC(Nc3nc4ccccc4n3Cc3ccc(F)cc3)CC2)cc1 ?
1.4

Short answer please: GGT Increase - Index Value, Hepatotoxicity, entry CC(=O)OCC(CCn1cnc2cnc(N)nc21)COC(C)=O
0

Provide the documented GGT Increase - Index Value with Hepatotoxicity as the system for N[C@@H](C(=O)N[C@@H]1C(=O)N2C(C(=O)O)=C(Cl)CC[C@H]12)c1ccccc1 [LORACARBEF ANHYDROUS]
0.1

Give GGT Increase - Index Value (Hepatotoxicity) of the following compound: CCOC(=O)C1=C(C)NC(C)=C(C(=O)OC)C1c1cccc(Cl)c1Cl (stereo not given)
0.3

So what GGT Increase - Index Value did CCN[C@@H](C)Cc1cccc(C(F)(F)F)c1 get with Hepatotoxicity?
0.6

Param readout= GGT Increase - Index Value; system= Hepatotoxicity; entry= CCCCC[C@H](O)/C=C/[C@H]1[C@H](O)CC(=O)[C@@H]1CCCCCCC(=O)O ; returns value.
0

Return GGT Increase - Index Value measured with Hepatotoxicity given this compound: CC(NCCc1ccc(O)cc1)C(O)c1ccc(O)cc1 (stereo not given)
0

###

Hi there, I'd appreciate the recorded SGOT Increase - Index Value for every entry that follows.
System: Hepatotoxicity
procedure.details: FDA HLAED, serum glutamic oxaloacetic transaminase (SGOT) increase
run.parameters: human
Answer as a number with no unit attached.

For Hepatotoxicity, provide SGOT Increase - Index Value of CN(C)c1nc(N(C)C)nc(N(C)C)n1 [ALTRETAMINE] please.
0

Give SGOT Increase - Index Value (Hepatotoxicity) of the following molecule: CCN(CC)CCNC(=O)c1ccc(N)cc1 [PROCAINAMIDE]
0

Entry OC(c1cc(C(F)(F)F)nc2c(C(F)(F)F)cccc12)C1CCCCN1 (centres undefined) [MEFLOQUINE] , system Hepatotoxicity: what SGOT Increase - Index Value was measured?
25.3

Lookup: SGOT Increase - Index Value / Hepatotoxicity / NCCC(O)(P(=O)(O)O)P(=O)(O)O [PAMIDRONIC ACID]
4.1

// fetch Hepatotoxicity SGOT Increase - Index Value for CCOC(=O)[C@H](CCc1ccccc1)N[C@@H](C)C(=O)N1[C@H](C(=O)O)C[C@H]2CCCC[C@@H]21 [TRANDOLAPRIL]
7

Query the reported SGOT Increase - Index Value for Hepatotoxicity; item: C[C@]12CC[C@@H]3c4ccc(O)cc4CC[C@H]3[C@@H]1CC[C@@H]2OC(=O)CCC1CCCC1 [ESTRADIOL CYPIONATE]
2.8

Form field - read-out: SGOT Increase - Index Value; system: Hepatotoxicity; submitted item: O=P1(NCCCl)OCCCN1CCCl (centres undefined) [IFOSFAMIDE]
17.5

Checklist item: SGOT Increase - Index Value tested on Hepatotoxicity, entry CCC(=O)O[C@@H](O[P@](=O)(CCCCc1ccccc1)CC(=O)N1C[C@H](C2CCCCC2)C[C@H]1C(=O)O)C(C)C [FOSINOPRIL] , value?
1.5

Test system Hepatotoxicity; read-out SGOT Increase - Index Value; what value for CCCC1O[C@@H]2C[C@H]3[C@@H]4CCC5=CC(=O)C=C[C@]5(C)[C@H]4[C@@H](O)C[C@]3(C)[C@]2(C(=O)CO)O1 (some centres undefined) [BUDESONIDE] ?
0

###

Test system: Hepatotoxicity
procedure.details: FDA HLAED, liver enzyme composite activity
run.parameters: human
value.kind: Composite Activity - Score

Examples from the recorded data:
C[C@]12CC[C@@H]3c4ccc(O)cc4CC[C@H]3[C@@H]1CC[C@@H]2O [ESTRADIOL]: Inactive
CCC(=O)OCC(=O)[C@@]1(OC(=O)CC)[C@H](C)C[C@H]2[C@H]3[C@H]([C@@H](O)C[C@@]21C)[C@@]1(C)C=CC(=O)C=C1C[C@H]3Cl [ALCLOMETASONE DIPROPIONATE]: Inactive
FC(F)OC(Cl)C(F)(F)F (stereo not given) [ISOFLURANE]: Inactive
N[C@@H](C(=O)N[C@@H]1C(=O)N2C(C(=O)O)=C(Cl)CC[C@H]12)c1ccccc1 [LORACARBEF ANHYDROUS]: Inactive
COCCCC/C(=N\OCCN)c1ccc(C(F)(F)F)cc1 [FLUVOXAMINE]: Active
CN(C)CCCN1c2ccccc2CCc2ccc(Cl)cc21 [CLOMIPRAMINE]: Inactive

Data request, read-out Composite Activity - Score, for CCC(=O)O[C@@H](O[P@](=O)(CCCCc1ccccc1)CC(=O)N1C[C@H](C2CCCCC2)C[C@H]1C(=O)O)C(C)C [FOSINOPRIL]
Inactive

Any idea what its Composite Activity - Score is? The compound is CC(CCc1ccc(O)cc1)NCCc1ccc(O)c(O)c1 (stereo not given) [DOBUTAMINE]
Inactive

Returns the measured Composite Activity - Score for the input compound. Input: COCC(=O)Nc1c(I)c(C(=O)NCC(O)CO)c(I)c(C(=O)N(C)CC(O)CO)c1I (stereo not given) [IOPROMIDE]
Inactive

// Composite Activity - Score lookup, key: Nc1nc2c(ncn2CCC(CO)CO)c(=O)[nH]1 [PENCICLOVIR]
Inactive

Requested read-out: Composite Activity - Score. Entry: CCCCCCCN(CC)CCCC(O)c1ccc(NS(C)(=O)=O)cc1 (stereo not given) [IBUTILIDE]
Inactive

Looking for the measured Composite Activity - Score of Cc1nc2n(c(=O)c1CCN1CCC(c3noc4cc(F)ccc34)CC1)CCCC2 [RISPERIDONE] , can you help?
Active

Reported Composite Activity - Score, compound CC[N+](C)(C)Cc1ccccc1Br.Cc1ccc(S(=O)(=O)[O-])cc1 [BRETYLIUM TOSYLATE] : ____
Inactive

So what's the measured Composite Activity - Score for this one? NCC1(CC(=O)O)CCCCC1 [GABAPENTIN]
Inactive

###

Tested on: Hepatotoxicity
procedure.details: FDA HLAED, serum glutamic pyruvic transaminase (SGPT) increase
run.parameters: human
value.kind: SGPT Increase - Number of Reports

CC1COc2c(N3CCN(C)CC3)c(F)cc3c(=O)c(C(=O)O)cn1c23 (configuration not stated) [OFLOXACIN]: >= 4
COC(=O)CCc1ccc(OCC(O)CNC(C)C)cc1 (configuration not stated) [ESMOLOL]: < 4
Cc1ccc(C)c(OCCCC(C)(C)C(=O)O)c1 [GEMFIBROZIL]: < 4
CCCC(=O)Nc1ccc(OCC(O)CNC(C)C)c(C(C)=O)c1 (configuration not stated) [ACEBUTOLOL]: >= 4
CC(C)C[C@H]1C(=O)N2CCC[C@H]2[C@]2(O)O[C@](NC(=O)[C@@H]3C=C4c5cccc6[nH]c(Br)c(c56)C[C@H]4N(C)C3)(C(C)C)C(=O)N12 [BROMOCRIPTINE]: < 4
CCC1=C[C@@H]2CN(C1)Cc1c([nH]c3ccccc13)[C@@](C(=O)OC)(c1cc3c(cc1OC)N(C)[C@H]1[C@@](O)(C(=O)OC)[C@H](OC(C)=O)[C@]4(CC)C=CCN5CC[C@]31[C@@H]54)C2 [VINORELBINE]: < 4
CO/N=C(/C(=O)N[C@@H]1C(=O)N2C(C(=O)OC(C)OC(=O)C(C)(C)OC)=C(COC(N)=O)CS[C@H]12)c1ccco1 (some centres not stated) [CEFUROXIME PIVOXETIL]: < 4
CC(C(=O)O)c1ccc(-c2ccccc2)c(F)c1 (configuration not stated) [FLURBIPROFEN]: >= 4
C[C@@H]1C[C@H]2[C@H]3[C@H]([C@@H](O)C[C@]2(C)[C@@]1(O)C(=O)CO)[C@@]1(C)C=CC(=O)C=C1C[C@H]3Cl [ALCLOMETASONE]: < 4
COc1cc([C@@H]2c3cc4c(cc3[C@H](O)[C@H]3COC(=O)[C@H]23)OCO4)cc(OC)c1OC [PODOFILOX]: < 4

For CN1C(C(=O)Nc2ccccn2)=C(O)c2ccccc2S1(=O)=O [PIROXICAM] , what is its reported SGPT Increase - Number of Reports?
>= 4

Requested field: SGPT Increase - Number of Reports. Item: CN1C2CCCC1CC(NC(=O)c1nn(C)c3ccccc13)C2 (configuration not stated) [GRANISETRON]
< 4

# SGPT Increase - Number of Reports lookup, item C[C@@H]1C[C@H]2[C@@H]3C[C@H](F)C4=CC(=O)C=C[C@]4(C)[C@@]3(F)[C@@H](O)C[C@]2(C)[C@@]1(O)C(=O)SCF [FLUTICASONE]
< 4

Please give the measured SGPT Increase - Number of Reports for this compound: COc1cc2nc(N3CCN(C(=O)C4COc5ccccc5O4)CC3)nc(N)c2cc1OC (configuration not stated) [DOXAZOSIN]
>= 4
